biological target: Polyamine deacetylase HDAC10 (Homo sapiens)
Sequence (Q969S8 whole entry): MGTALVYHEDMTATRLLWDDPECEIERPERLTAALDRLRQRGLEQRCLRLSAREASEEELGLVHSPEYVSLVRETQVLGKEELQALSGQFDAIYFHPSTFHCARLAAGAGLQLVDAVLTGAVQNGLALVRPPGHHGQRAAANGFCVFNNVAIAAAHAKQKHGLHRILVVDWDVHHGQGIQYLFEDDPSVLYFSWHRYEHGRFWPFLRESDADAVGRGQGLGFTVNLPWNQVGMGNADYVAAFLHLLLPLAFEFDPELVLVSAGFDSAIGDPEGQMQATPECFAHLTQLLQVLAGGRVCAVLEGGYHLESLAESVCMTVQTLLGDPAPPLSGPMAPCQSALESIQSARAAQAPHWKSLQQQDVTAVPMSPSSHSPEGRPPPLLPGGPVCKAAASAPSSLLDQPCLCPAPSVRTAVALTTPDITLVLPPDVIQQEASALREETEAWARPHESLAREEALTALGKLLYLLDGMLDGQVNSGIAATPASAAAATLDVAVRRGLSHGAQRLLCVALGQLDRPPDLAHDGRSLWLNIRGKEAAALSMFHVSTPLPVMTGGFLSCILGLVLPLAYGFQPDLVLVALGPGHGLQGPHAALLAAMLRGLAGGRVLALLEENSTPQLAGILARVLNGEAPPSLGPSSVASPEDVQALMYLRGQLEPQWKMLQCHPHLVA
recorded endpoint: pIC50
Give bare numbers, as −log10 of the molar value.

// pIC50 lookup, compound = O=C(CCCCCCOc1ccc2cc1COC/C=C/COCc1cccc(c1)-c1ccnc(n1)N2)NO , result: 7.10

* * *

molecular target: Histone deacetylase 2 (Homo sapiens); assay: Inhibition of full length human recombinant C-terminal GST-tagged HDAC2 (1 to 488 residues) expressed in insect cells preincubated with enzyme followed by fluorogenic Arg-His-Lys-Lys(Ac)-AMC substrate addition measured after 2 hrs by fluorescence assay
Sequence (Q92769 whole entry, the tested form may be a part): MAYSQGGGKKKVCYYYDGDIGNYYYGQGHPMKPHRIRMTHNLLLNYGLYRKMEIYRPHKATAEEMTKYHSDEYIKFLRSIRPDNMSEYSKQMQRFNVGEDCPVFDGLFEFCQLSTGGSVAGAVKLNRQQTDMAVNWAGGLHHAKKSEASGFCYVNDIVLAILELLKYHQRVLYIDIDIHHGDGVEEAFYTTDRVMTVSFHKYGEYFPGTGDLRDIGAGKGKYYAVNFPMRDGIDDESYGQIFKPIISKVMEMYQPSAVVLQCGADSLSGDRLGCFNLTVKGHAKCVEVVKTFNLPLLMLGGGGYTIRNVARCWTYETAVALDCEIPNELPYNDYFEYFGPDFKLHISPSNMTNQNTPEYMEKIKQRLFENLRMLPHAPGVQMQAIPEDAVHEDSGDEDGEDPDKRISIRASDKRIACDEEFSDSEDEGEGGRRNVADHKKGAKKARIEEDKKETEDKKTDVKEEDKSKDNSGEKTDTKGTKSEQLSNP
recorded endpoint: pIC50
Answers are plain numbers, as −log10 of the molar value.

Entry O=C(CCCCCCOc1ccc2cc1COC/C=C/COCc1cccc(c1)-c1ccnc(n1)N2)NO ; pIC50 = 7.31
